Examples of binders with documented Kd follow.
- SYSTEM_NAME: T1, recombinant BACE1 (BACE1 extracellular domain, R&D Systems Cat#931-AS) (UniProt P56817 22-457)
- T1 construct: extracellular domain; also called BACE1 extracellular domain protein
- EXPERIMENTAL_PROTOCOL: SPR Biacore
Output spec: scalar in nM, unitless text.

# query: Kd of entry hu2H8v19 (antibody, V domains shown, humanized; also called hu2H8_HC1 + hu2H8_LC4) VH: QVQLVQSGAEVKKPGASVKVSCKASGYTFTNFWIHWVRQAPGQGLEWMGMIDPSDSYTKYNQKFKARVTMTRDTSTSTTYMELSSLRSEDTAVYYCARSGVAFPYWGQGTLVTVSS VL: DIQMTQSPSSLSASVGDRVTITCKASQDVGRNVAWYQQKPGKSPKSLIYSASHRYSGVPSRFSGSGSGTDFTLTISSLQPEDFATYYCQQYNSYPYTFGQGTKVEIK
17.4

Form field: reported Kd of hu2H8v21 (antibody, V domains shown, humanized; also called hu2H8_HC3 + hu2H8_LC4) VH: QVQLVQSGAEVKKPGASVKVSCKASGYTFTNFWIHWLRQAPGQGLEWMGMIDPSDSYTKYNQKFKARVTMTVDTSTSTTYMELSSLRSEDTAVYYCARSGVAFPYWGQGTLVTVSS VL: DIQMTQSPSSLSASVGDRVTITCKASQDVGRNVAWYQQKPGKSPKSLIYSASHRYSGVPSRFSGSGSGTDFTLTISSLQPEDFATYYCQQYNSYPYTFGQGTKVEIK
13.5

Consider the additional binder presented here.
Query (binder): hu2H8v11 (antibody, V domains shown, humanized; also called hu2H8_HC6 + hu2H8_LC2) VH: QVQLVQSGAEVKKPGASVKVSCKASGYTFTNFWIHWVRQAPGQGLEWMGMIDPSDSYTKYNQKFKARATLTVDTSTSTVYMELSSLRSEDTAVYYCARSGVAFPYWGQGTLVTVSS VL: DIQMTQSPSSLSASVGDRVTITCKASQDVGRNVAWYQQKPGKSPKLLIYSASHRYSGVPSRFSGSGSGTDFTLTISSLQPEDFATYYCQQYNSYPYTFGQGTKVEIK ; field requested: Kd
88.3

This collection of values is drawn from patent US20210070881A1.
